These measurements were taken from patent EP1090023B1.

# TARGET SYSTEM: adenosine 3 (Homo sapiens, UniProt P0DMS8)
# Sequence (P0DMS8 whole entry): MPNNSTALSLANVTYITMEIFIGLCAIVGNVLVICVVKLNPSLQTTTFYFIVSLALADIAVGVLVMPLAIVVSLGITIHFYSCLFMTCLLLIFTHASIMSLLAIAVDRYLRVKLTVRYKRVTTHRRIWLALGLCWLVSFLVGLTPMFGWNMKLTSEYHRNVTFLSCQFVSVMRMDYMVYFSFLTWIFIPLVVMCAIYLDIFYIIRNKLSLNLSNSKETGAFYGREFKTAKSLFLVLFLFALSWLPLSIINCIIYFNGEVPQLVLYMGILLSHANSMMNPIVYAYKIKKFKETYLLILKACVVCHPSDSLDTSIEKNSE
# EXPERIMENTAL PROTOCOL: Agonist activity against adenosine receptor subtypes, CHO cells with cAMP response element/SPAP reporter (forskolin-enhanced cAMP)
# Type: cell-based
# MEASUREMENT CONTEXT: ratio to EC50 of NECA; transfected CHO cells; effect on forskolin-enhanced cAMP via SPAP
READOUT NAME: A3 (EC50 values as a ratio of that of NECA)

* CCc1nnc([C@H]2O[C@@H](n3cnc4c(NCC(c5ccccc5)c5ccccc5)nc(N[C@H](CO)Cc5ccccc5)nc43)[C@H](O)[C@@H]2O)[nH]1.O=CO [Example 5] | >319
* Cc1nnc([C@H]2O[C@@H](n3cnc4c(NCC(c5ccccc5)c5ccccc5)nc(NCCN5CCCC5)nc43)[C@H](O)[C@@H]2O)[nH]1.O=CO [Example 1] | >1088
* CCn1cnc(C2OC(n3cnc4c(NCC(c5ccccc5)c5ccccc5)nc(NC5CCC(N)CC5)nc43)C(O)C2O)n1.O=CO.O=CO (stereo not drawn) [Example 30] | >206
* CCn1cnc(C2OC(n3cnc4c(NCC(c5ccccc5)c5ccccc5)nc(NC5CCNC5)nc43)C(O)C2O)n1.O=CO.O=CO (stereo not drawn) [Example 34] | >231
* CCc1nnc([C@H]2O[C@@H](n3cnc4c(NCC(c5ccccc5)c5ccccc5)nc(N[C@H]5CC[C@H](N)CC5)nc43)[C@H](O)[C@@H]2O)o1.O=CO [Example 25] | >136
* CCc1nc([C@H]2O[C@@H](n3cnc4c(NCC(c5ccccc5)c5ccccc5)nc(NCCNC(=N)N)nc43)[C@H](O)[C@@H]2O)no1.O=CO.O=CO [Example 29] | >284

====

# TARGET SYSTEM: UniProt:P29274
# Sequence (P29274 whole entry): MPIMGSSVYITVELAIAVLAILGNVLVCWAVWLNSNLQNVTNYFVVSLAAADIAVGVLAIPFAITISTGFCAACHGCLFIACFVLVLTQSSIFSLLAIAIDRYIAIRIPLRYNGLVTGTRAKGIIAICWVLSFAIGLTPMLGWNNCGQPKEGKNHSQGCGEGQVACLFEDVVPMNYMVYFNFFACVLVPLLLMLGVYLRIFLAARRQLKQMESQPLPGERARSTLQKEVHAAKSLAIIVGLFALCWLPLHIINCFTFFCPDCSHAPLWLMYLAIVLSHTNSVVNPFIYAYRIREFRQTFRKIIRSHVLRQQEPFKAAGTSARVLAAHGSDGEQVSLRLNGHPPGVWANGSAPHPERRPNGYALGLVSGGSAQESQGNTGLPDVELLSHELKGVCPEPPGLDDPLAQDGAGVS
# EXPERIMENTAL PROTOCOL: Agonist activity against adenosine receptor subtypes, CHO cells with cAMP response element/SPAP reporter (basal cAMP)
# Assay type: cell-based
# MEASUREMENT CONTEXT: ratio to EC50 of NECA; transfected CHO cells; effect on basal cAMP via SPAP
Rule: A2a (EC50 values as a ratio of that of NECA) of 5 or more gives Condition met; anything lower gives Condition not met.

• CCc1nnc([C@H]2O[C@@H](n3cnc4c(NCC(c5ccccc5)c5ccccc5)nc(N[C@H]5CC[C@H](N)CC5)nc43)[C@H](O)[C@@H]2O)o1.O=CO = Condition not met
• Cc1cnc([C@H]2O[C@@H](n3cnc4c(NCC(c5ccccc5)c5ccccc5)nc(N[C@@H]5CCNC5)nc43)[C@H](O)[C@@H]2O)o1.O=CO.O=CO = Condition met
• CCn1cnc([C@H]2O[C@@H](n3cnc4c(NCC(c5ccccc5)c5ccccc5)nc(NCCc5cn(C)cn5)nc43)[C@H](O)[C@@H]2O)n1.O=CO.O=CO = Condition met
• CCc1nnc([C@H]2O[C@@H](n3cnc4c(NCC(c5ccccc5)c5ccccc5)nc(N[C@@H]5CCNC5)nc43)[C@H](O)[C@@H]2O)[nH]1.O=CO = Condition not met
• Cc1cnc([C@H]2O[C@@H](n3cnc4c(NCCC5CCCCC5)nc(N[C@H](CO)Cc5ccccc5)nc43)[C@H](O)[C@@H]2O)o1.O=CO = Condition met
• CCc1nnc([C@H]2O[C@@H](n3cnc4c(NCC(c5ccccc5)c5ccccc5)nc(N[C@H](CO)Cc5ccccc5)nc43)[C@H](O)[C@@H]2O)o1.O=CO = Condition not met

====

# TARGET SYSTEM: adenosine 1 (Homo sapiens)
# Sequence (P30542 1-326): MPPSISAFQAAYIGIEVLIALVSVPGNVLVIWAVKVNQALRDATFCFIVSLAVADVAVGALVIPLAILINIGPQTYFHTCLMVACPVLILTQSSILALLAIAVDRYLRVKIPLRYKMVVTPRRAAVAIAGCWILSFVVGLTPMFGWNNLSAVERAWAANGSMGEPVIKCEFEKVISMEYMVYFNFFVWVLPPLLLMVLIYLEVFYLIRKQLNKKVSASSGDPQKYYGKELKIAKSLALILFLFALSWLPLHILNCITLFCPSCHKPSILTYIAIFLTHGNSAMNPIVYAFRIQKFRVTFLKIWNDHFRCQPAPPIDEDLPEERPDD
# EXPERIMENTAL PROTOCOL: Agonist activity against adenosine receptor subtypes, CHO cells with cAMP response element/SPAP reporter (forskolin-enhanced cAMP)
# Format: cell-based
# MEASUREMENT CONTEXT: ratio to EC50 of NECA; transfected CHO cells; effect on forskolin-enhanced cAMP via SPAP
# Procedure: Compounds of the invention were tested for in vitro and in vivo biological activity in accordance with the following screens: • (1) Agonist activity against adenosine 2a, adenosine 1 and adenosine 3 receptor subtypes. Agonist selectivity of compounds against other human adenosine receptors was determined using Chinese hamster ovary (CHO) cells transfected with the gene for the relevant human adenosine receptor following a method based on that of Castanon and Spevak, 1994 . […]
A1 (EC50 values as a ratio of that of NECA) overview
READOUT NAME: A1 (EC50 values as a ratio of that of NECA)

- CCC(CC)Nc1nc(NCCC2CCCCC2)nc2c1ncn2C1OC(c2nnc(C3CC3)o2)C(O)C1O.O=CO.O=CO (stereo not drawn): 1921.5
- Cc1nnc([C@H]2O[C@@H](n3cnc4c(NCC(c5ccccc5)c5ccccc5)nc(N[C@H]5CC[C@H](N)CC5)nc43)[C@H](O)[C@@H]2O)[nH]1.O=CO: 4686
- CCC(CC)Nc1nc(N[C@H](CO)C(C)C)nc2c1ncn2[C@@H]1O[C@H](c2nnc(C3CC3)o2)[C@@H](O)[C@H]1O.O=CO: 306.9
- CCC(CC)Nc1nc(NCCN2CCCCC2)nc2c1ncn2C1OC(c2nnc(C3CC3)o2)C(O)C1O.O=CO.O=CO (stereo not drawn): 365.6
- CCc1nnc([C@H]2O[C@@H](n3cnc4c(NCC(c5ccccc5)c5ccccc5)nc(NCCN5CCOCC5)nc43)[C@H](O)[C@@H]2O)o1.O=CO: 101.96
- CCn1cnc([C@H]2O[C@@H](n3cnc4c(NCC(c5ccccc5)c5ccccc5)nc(NCCN5CCCCC5)nc43)[C@H](O)[C@@H]2O)n1.O=CO.O=CO: 1217.4
- Cc1nnc([C@H]2O[C@@H](n3cnc4c(NCC(c5ccccc5)c5ccccc5)nc(NCCc5cn(C)cn5)nc43)[C@H](O)[C@@H]2O)s1.O=CO.O=CO: 3172
- CCc1nc([C@H]2O[C@@H](n3cnc4c(NCC(c5ccccc5)c5ccccc5)nc(N[C@H](CO)Cc5ccccc5)nc43)[C@H](O)[C@@H]2O)no1.O=CO: 4514.96
- CCC(CC)Nc1nc(N[C@@H]2CCNC2)nc2c1ncn2[C@@H]1O[C@H](c2nnc(C3CC3)o2)[C@@H](O)[C@H]1O.O=CO.O=CO: 5084.2
- CCc1nnc([C@H]2O[C@@H](n3cnc4c(NCC(c5ccccc5)c5ccccc5)nc(N[C@H]5CC[C@H](N)CC5)nc43)[C@H](O)[C@@H]2O)o1.O=CO: 398.28
- Cc1nnc([C@H]2O[C@@H](n3cnc4c(NCC(c5ccccc5)c5ccccc5)nc(N[C@H](CO)Cc5ccccc5)nc43)[C@H](O)[C@@H]2O)s1.O=CO: 2625

====

# TARGET SYSTEM: UniProt P29274
# EXPERIMENTAL PROTOCOL: Agonist activity against adenosine receptor subtypes, CHO cells with cAMP response element/SPAP reporter (basal cAMP)
# Type: cell-based
# MEASUREMENT CONTEXT: ratio to EC50 of NECA; transfected CHO cells; effect on basal cAMP via SPAP
READOUT NAME: A2a (EC50 values as a ratio of that of NECA)

* CCc1nnc([C@H]2O[C@@H](n3cnc4c(NCC(c5ccccc5)c5ccccc5)nc(NCCN5CCOCC5)nc43)[C@H](O)[C@@H]2O)o1.O=CO | 6.16
* CCC(CC)Nc1nc(NC2CCCC2)nc2c1ncn2[C@@H]1O[C@H](c2nnc(C3CC3)o2)[C@@H](O)[C@H]1O.O=CO.O=CO | 129.5
* CCC(CC)Nc1nc(N[C@H](CO)C(C)C)nc2c1ncn2[C@@H]1O[C@H](c2nnc(C3CC3)o2)[C@@H](O)[C@H]1O.O=CO | 41.04

====

Collected A3 (EC50 values as a ratio of that of NECA) values appear next to each entry.
# TARGET SYSTEM: adenosine 3 (Homo sapiens, UniProt P0DMS8)
# EXPERIMENTAL PROTOCOL: Agonist activity against adenosine receptor subtypes, CHO cells with cAMP response element/SPAP reporter (forskolin-enhanced cAMP)
# Format: cell-based
# MEASUREMENT CONTEXT: ratio to EC50 of NECA; transfected CHO cells; effect on forskolin-enhanced cAMP via SPAP
READOUT NAME: A3 (EC50 values as a ratio of that of NECA)

- CCc1nc([C@H]2O[C@@H](n3cnc4c(NCC(c5ccccc5)c5ccccc5)nc(NCCN5CCCCC5)nc43)[C@H](O)[C@@H]2O)no1.O=CO: >190
- CCc1nnc([C@H]2O[C@@H](n3cnc4c(NCC(c5ccccc5)c5ccccc5)nc(N[C@H]5CC[C@H](N)CC5)nc43)[C@H](O)[C@@H]2O)[nH]1.O=CO: >183
- CCc1nc([C@H]2O[C@@H](n3cnc4c(NCC(c5ccccc5)c5ccccc5)nc(NCCN5CCOCC5)nc43)[C@H](O)[C@@H]2O)no1.O=CO: >190
- CCc1nnc([C@H]2O[C@@H](n3cnc4c(NCC(c5ccccc5)c5ccccc5)nc(NCCc5ccccn5)nc43)[C@H](O)[C@@H]2O)o1.O=CO: >175
- CCC(CC)Nc1nc(N[C@H]2CC[C@H](N)CC2)nc2c1ncn2[C@@H]1O[C@H](c2nnc(C3CC3)o2)[C@@H](O)[C@H]1O.O=CO.O=CO (relative stereo): >173
- CCC(CC)Nc1nc(NCCC2CCCCC2)nc2c1ncn2C1OC(c2nnc(C3CC3)o2)C(O)C1O.O=CO.O=CO (stereo not drawn): >249
- Cc1cnc([C@H]2O[C@@H](n3cnc4c(NCCC5CCCCC5)nc(N[C@H](CO)Cc5ccccc5)nc43)[C@H](O)[C@@H]2O)o1.O=CO: >518
- CCn1cnc([C@H]2O[C@@H](n3cnc4c(NCC(c5ccccc5)c5ccccc5)nc(NCCc5ccccn5)nc43)[C@H](O)[C@@H]2O)n1.O=CO.O=CO: >206
- CCC(CC)Nc1nc(NCCN2CCCCC2)nc2c1ncn2C1OC(c2nnc(C3CC3)o2)C(O)C1O.O=CO.O=CO (stereo not drawn): >173
- CCc1nc([C@H]2O[C@@H](n3cnc4c(NCC(c5ccccc5)c5ccccc5)nc(N[C@H](CO)Cc5ccccc5)nc43)[C@H](O)[C@@H]2O)no1.O=CO: >257
- CCc1nnc([C@H]2O[C@@H](n3cnc4c(NCC(c5ccccc5)c5ccccc5)nc(N[C@@H]5CCNC5)nc43)[C@H](O)[C@@H]2O)o1.O=CO: >162
- Cc1cnc([C@H]2O[C@@H](n3cnc4c(NCC(c5ccccc5)c5ccccc5)nc(N[C@@H]5CCNC5)nc43)[C@H](O)[C@@H]2O)o1.O=CO.O=CO: >223
